Reference for the values: PubChem BioAssay (NCI)

System: TK-10 renal
Test Summary: NCI tumour cell line growth inhibition, 48 h
Could you please report measured TGI for the items listed next?

Lookup result for `COc1cc(Nc2nc3ccc(C(F)(F)F)cc3nc2-c2ccccc2)cc(OC)c1OC` ; measured TGI: > 100 µM

Lookup result for C=CCCCCCCCCCOC1C=CC(OC(C)=O)C(COC(C)=O)O1 (centres undefined) ; measured TGI: > 100 µM

Lookup result for `CC(C)OC(=O)[C@@H](O)[C@H](CO)C1=CC([Si](C)(C)c2ccccc2)=CON1` ; measured TGI: > 100 µM

Lookup result for CC1CCc2sc3[nH]c(=S)n(-c4ccccc4)c(=O)c3c2C1 (centres undefined) ; measured TGI: > 100 µM

Lookup result for `CCOC(=O)Cn1c(=O)c2cc(-c3ccccc3)cc3c(Cl)nc4c(OC)c(OC)cc1c4c32` ; measured TGI: 99.4 µM

Lookup result for `CC(=O)O[C@H]1C[C@H]2C(=S)Nc3ccccc3C(=S)N2C1` ; measured TGI: > 100 µM

Lookup result for `COc1cc2c(cc1OCCCCOc1ccc(-c3nc4ccccc4s3)cc1)N=C[C@@H]1CCCN1C2=O` ; measured TGI: 5.17 µM

Lookup result for `CS(=O)(=O)OCCCOS(C)(=O)=O` ; measured TGI: > 100 µM

Lookup result for `O=C(OCc1ccccc1)N1CCN(C(=O)OCc2ccccc2)CCN(C(=O)OCc2ccccc2)CCN(C(=O)OCc2ccccc2)CCN(C(=O)OCc2ccccc2)CC1` ; measured TGI: > 100 µM
